# System: UO-31 renal
# procedure.details: NCI-60 one-dose screen, 48 h
# setup.conditions: 10 µM
This is part of a sample that, as a whole, favours compounds with a hit. Of some 83,000 tested, about 20% had one in any assay. The source made the active and inactive calls. The calls were made as follows: active = growth percent below 10; inactive = the rest.
Hi! Could you answer with just one of these? T for active, F for inactive

As a guide, the following entries are already answered.
compound	assigned.label
CC1=C(CN(O)C(N)=O)C2=C(C)C3(CC3)[C@](C)(O)C(=O)C2=C1	T
C/C=C\C(=O)O[C@@H]1CC2O[C@@H]3C=C(C)C(=O)C[C@]3(C)[C@]1(C)[C@]21CO1	T
CC1=C(CCC=NNC(N)=O)C2=C(C)C3(CC3)[C@@](C)(O)C(=O)C2=C1	T
CC(=O)O[C@@H]1C[C@H]2O[C@@H]3C=C(C)CC[C@]3(C)[C@]1(C)[C@]21CO1	F
CC(C)(O)/C=C/C(=O)[C@](C)(O)[C@H]1[C@H](O)C[C@@]2(C)[C@H]3CC=C4[C@@H](C[C@H](O)C(=O)C4(C)C)[C@]3(C)C(=O)C[C@]12C	T
C[C@@H]1CCC/C=C/[C@H]2C[C@@H](O)C[C@@H]2[C@@H](O)/C=C/C(=O)O1	T
CCC(C)[C@H]1C(=O)O[C@H](C(C)C)C(=O)N(C)[C@@H](C(C)C)C(=O)O[C@H](C(C)C)C(=O)N(C)[C@@H](C(C)C)C(=O)O[C@H](C(C)C)C(=O)N1C (some centres not stated)	T
CC1=C2C(=C[C@@](C)(COC(=O)c3ccc(S(=O)(=O)F)cc3)[C@@H]2OC(=O)c2ccc(S(=O)(=O)F)cc2)C(=O)[C@](C)(O)C12CC2	T
COc1cc(OC)c(S(=O)(=O)N(CCCl)CCCl)cc1C(=O)/C=C/c1ccc(Cl)cc1	F
COc1cc2c(O[C@@H]3OC[C@H](O)[C@H](O)[C@H]3O)c3c(c(-c4ccc5c(c4)OCO5)c2cc1OC)C(=O)OC3	F

Could you kindly confirm the outcome this assay logged for COc1cccc2c1cc([N+](=O)[O-])c1c(C(=O)O)cc3c(c12)OCO3 ?
F

Please give the result for CC1=C2C(=C[C@@](C)(COC(=O)c3ccc(S(=O)(=O)F)cc3)[C@@H]2O)C(=O)[C@](C)(O)C12CC2 too.
T

---

# Test system: HL-60(TB) leukemia
# procedure.details: NCI-60 one-dose screen, 48 h (100 = growth as untreated, 0 = no growth, -100 = all killed)
# setup.conditions: 10 µM unless noted
The panel holds about 83,000 compounds, 20% with a hit somewhere; the sample as a whole holds those more often.
measurement.kind: growth (%)
Report as a plain number; the unit % is understood.

Completed entries (count: 2):
smiles.string	growth [%]
C=C(C)[C@@H]1CC[C@]2(C(=O)N3CCN(C)CC3)CC[C@]3(C)[C@H](CC[C@@H]4[C@@]5(C)CC[C@H](OP(=O)(OCC)OCC)C(C)(C)[C@@H]5CC[C@]43C)[C@@H]12	42.2
Oc1ccc(CSc2nnc(-c3ccc(Br)cc3)o2)c2cccnc12	23

// map C=CCn1c(-c2nc3ccc(C(=C(C#N)C#N)c4ccccc4)cc3[nH]2)cc2cc(Br)ccc21 to recorded growth (system: HL-60(TB) leukemia)
59.2

Please give the result for C=CCn1c(SCC(=O)Nc2ccc(C(=O)/C=C/c3cc(OC)c(OC)c(OC)c3)cc2)nnc1-c1c[nH]c2ccccc12 too.
-15.1
